In this section we review reported IC50 values for a set of compounds.
tested on: Molm-13 AML cell line; test: Compound dose response assay (trypan blue % viability) and CompuSyn combination analysis, Molm-13; format: cell-based; conditions: Homo sapiens, single agent, % viability normalized to vehicle, 48 or 72 hours post treatment, read-out: IC50 (nM), single agent
Report as a plain number; the unit nM is understood.

Below, 2 compounds whose answers are already recorded.
compoundStructure	reportedResult
CC1(C)CCC(c2ccc(Cl)cc2)=C(CN2CCN(c3ccc(C(=O)NS(=O)(=O)c4ccc(N[C@H](CCN5CCOCC5)CSc5ccccc5)c(S(=O)(=O)C(F)(F)F)c4)cc3)CC2)C1	358
Nc1ncc(-c2cnn(C3CCNCC3)c2)cc1-c1nnc(CC2CC2)o1	430

// switching to the query compound
Lab note: "CC1(C)CCC(CN2CCN(c3ccc(C(=O)NS(=O)(=O)c4ccc(NCC5CCOCC5)c([N+](=O)[O-])c4)c(Oc4cnc5[nH]ccc5c4)c3)CC2)=C(c2ccc(Cl)cc2)C1" gave IC50 of 55.9

Data credit: patent US12097194B2
